Origin of values: paper PMC7226027

Biological target: pAPN (porcine kidney alanine aminopeptidase, EC 3.4.11.2) (Sus scrofa, UniProt P15145)
Construct: gene ANPEP; commercial enzyme from porcine kidney (Sigma Aldrich), native purification, lyophilized powder
Test: fluorogenic assay, Ala-AMC hydrolysis; Ki by Lineweaver-Burk, Dixon, Cheng-Prusoff
Type: biochemical
Conditions: racemate (hydrochloride); 80 µM Ala-AMC, 50 mM Tris-HCl pH 7.20, 37 °C, 0.66 nM enzyme, 30 min enzyme preincubation in buffer
ENDPOINT LABEL: Ki (µM)
Just the number in µM, nothing appended.

Req: Fill in: Ki of NC(Cc1ccccc1)P(=O)(O)O (stereo not shown) is ___
Resp: 73.3

###

Biological target: pAPN (porcine kidney alanine aminopeptidase, EC 3.4.11.2) (Sus scrofa, UniProt P15145)
Construct: gene ANPEP; commercial enzyme from porcine kidney (Sigma Aldrich), native purification, lyophilized powder
Test: fluorogenic assay, Ala-AMC hydrolysis; Ki by Lineweaver-Burk, Dixon, Cheng-Prusoff
Type: biochemical
ENDPOINT LABEL: pKi
Quick note: pKi means taking -log10 of the concentration in moles per liter.

Req: Fill in: pKi of NC(Cc1ccc(F)c(C(F)(F)F)c1)P(=O)(O)O (racemic) [1z] is ___
Resp: 4.17

Req: Also NC(Cc1c(F)cc(F)cc1F)P(=O)(O)O (racemic) [1k] , if possible.
Resp: 3.01

Req: Also NC(Cc1cccc(F)c1)P(=O)(O)O (racemic) [1c] , if possible.
Resp: 4.58

Req: Also NC(Cc1cc(F)ccc1F)P(=O)(O)O (racemic) [1f] , if possible.
Resp: 4.06

Req: Also NC(Cc1ccc(F)cc1F)P(=O)(O)O (racemic) [1e] , if possible.
Resp: 4.02

###

Molecular target: hAPN (recombinant human alanine aminopeptidase, EC 3.4.11.2) (Homo sapiens, UniProt P15144)
Construct: gene ANPEP; commercial recombinant enzyme (R&D Systems), lyophilized powder
Sequence (P15144 33-967 limits assumed): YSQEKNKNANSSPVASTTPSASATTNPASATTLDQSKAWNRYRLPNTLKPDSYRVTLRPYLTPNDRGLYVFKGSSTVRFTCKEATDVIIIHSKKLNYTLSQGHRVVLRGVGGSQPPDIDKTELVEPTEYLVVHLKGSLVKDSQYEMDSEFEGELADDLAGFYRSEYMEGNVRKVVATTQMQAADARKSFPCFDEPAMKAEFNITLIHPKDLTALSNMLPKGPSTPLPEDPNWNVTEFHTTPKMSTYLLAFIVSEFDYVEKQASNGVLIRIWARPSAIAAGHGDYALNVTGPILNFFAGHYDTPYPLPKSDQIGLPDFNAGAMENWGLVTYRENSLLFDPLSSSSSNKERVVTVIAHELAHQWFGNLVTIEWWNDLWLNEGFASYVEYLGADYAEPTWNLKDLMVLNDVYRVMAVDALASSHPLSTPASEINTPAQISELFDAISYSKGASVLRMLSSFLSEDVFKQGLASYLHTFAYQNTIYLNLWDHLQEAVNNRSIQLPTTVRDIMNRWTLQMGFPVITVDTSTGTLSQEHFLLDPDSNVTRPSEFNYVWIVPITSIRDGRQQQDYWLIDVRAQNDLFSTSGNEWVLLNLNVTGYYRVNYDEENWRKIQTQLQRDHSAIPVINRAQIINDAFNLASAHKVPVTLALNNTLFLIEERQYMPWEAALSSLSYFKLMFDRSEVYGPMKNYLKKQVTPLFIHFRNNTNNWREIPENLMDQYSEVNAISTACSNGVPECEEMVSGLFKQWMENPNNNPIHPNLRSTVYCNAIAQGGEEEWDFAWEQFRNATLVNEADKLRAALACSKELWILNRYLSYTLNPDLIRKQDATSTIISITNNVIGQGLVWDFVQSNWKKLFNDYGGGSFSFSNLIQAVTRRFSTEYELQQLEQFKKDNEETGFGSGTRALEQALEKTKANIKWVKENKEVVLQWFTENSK
Assay: fluorogenic assay, Ala-AMC hydrolysis; Ki by Lineweaver-Burk, Dixon, Cheng-Prusoff
Assay type: biochemical
Settings: read-out: hAPN Ki
ENDPOINT LABEL: log10 Ki (log10 of the value in µM)
Could you please treat all values as log10 of Ki in µM?

Req: Fill in: log10 Ki of NC(Cc1cc(F)c(F)c(F)c1)P(=O)(O)O (racemic) [1l] is ___
Resp: -0.10

Req: Also NC(Cc1c(F)cccc1Cl)P(=O)(O)O (racemic) [1r] , if possible.
Resp: 2.56

Req: Also NC(Cc1ccc(F)cc1F)P(=O)(O)O (racemic) [1e] , if possible.
Resp: 1.13

Req: Also NC(Cc1ccc(Cl)c(F)c1)P(=O)(O)O (racemic) [1s] , if possible.
Resp: 0.00

Req: Also NC(Cc1c(F)c(F)c(F)c(F)c1F)P(=O)(O)O (racemic) [1m] , if possible.
Resp: 2.14

Req: Also NC(Cc1c(F)cccc1F)P(=O)(O)O (racemic) [1g] , if possible.
Resp: 2.51

###

Molecular target: pAPN (porcine kidney alanine aminopeptidase, EC 3.4.11.2) (Sus scrofa, UniProt P15145)
Construct: gene ANPEP; commercial enzyme from porcine kidney (Sigma Aldrich), native purification, lyophilized powder
Sequence (P15145 2-963): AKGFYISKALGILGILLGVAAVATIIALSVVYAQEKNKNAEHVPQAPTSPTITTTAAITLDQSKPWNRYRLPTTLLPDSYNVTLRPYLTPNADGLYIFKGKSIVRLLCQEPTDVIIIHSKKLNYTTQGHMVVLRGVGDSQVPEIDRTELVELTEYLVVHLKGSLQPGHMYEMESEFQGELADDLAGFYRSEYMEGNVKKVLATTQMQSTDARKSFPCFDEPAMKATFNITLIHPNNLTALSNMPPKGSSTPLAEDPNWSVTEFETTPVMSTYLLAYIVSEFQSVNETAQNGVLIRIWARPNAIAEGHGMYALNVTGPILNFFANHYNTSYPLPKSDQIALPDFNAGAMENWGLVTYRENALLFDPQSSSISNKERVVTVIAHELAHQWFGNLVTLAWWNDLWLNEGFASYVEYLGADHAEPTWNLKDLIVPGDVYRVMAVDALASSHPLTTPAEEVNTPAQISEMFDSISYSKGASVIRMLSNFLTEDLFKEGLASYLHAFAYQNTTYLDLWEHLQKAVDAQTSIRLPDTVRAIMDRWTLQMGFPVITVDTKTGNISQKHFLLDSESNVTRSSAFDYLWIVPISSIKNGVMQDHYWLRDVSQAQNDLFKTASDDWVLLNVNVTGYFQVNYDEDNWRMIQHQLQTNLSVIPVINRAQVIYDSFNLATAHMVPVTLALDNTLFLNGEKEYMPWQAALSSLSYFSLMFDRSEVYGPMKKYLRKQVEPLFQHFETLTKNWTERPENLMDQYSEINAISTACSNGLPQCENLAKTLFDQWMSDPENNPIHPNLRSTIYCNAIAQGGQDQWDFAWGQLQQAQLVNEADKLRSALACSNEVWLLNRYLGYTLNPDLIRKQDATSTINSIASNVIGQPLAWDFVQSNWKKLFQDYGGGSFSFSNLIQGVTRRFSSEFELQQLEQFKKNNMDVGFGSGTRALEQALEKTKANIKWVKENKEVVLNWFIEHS
Assay: fluorogenic assay, Ala-AMC hydrolysis; Ki by Lineweaver-Burk, Dixon, Cheng-Prusoff
Assay type: biochemical
Field: Ki. Provide a value for each of the compounds that follow.
Just the number in µM, nothing appended.

Req: Fill in: Ki of NC(Cc1ccc(F)cc1)P(=O)(O)O (racemic) [1d] is ___
Resp: 41.4

Req: Also NC(Cc1ccccc1F)P(=O)(O)O (racemic) [1b] , if possible.
Resp: 256

Req: Also NC(Cc1cc(Cl)ccc1F)P(=O)(O)O (racemic) [1p] , if possible.
Resp: 47.2

Req: Also NC(Cc1cc(F)c(F)c(F)c1)P(=O)(O)O (racemic) [1l] , if possible.
Resp: 7.1

Req: Also NC(Cc1cccc(C(F)(F)F)c1)P(=O)(O)O (racemic) [1w] , if possible.
Resp: 66

Req: Also NC(Cc1ccc(C(F)(F)F)cc1)P(=O)(O)O (racemic) [1x] , if possible.
Resp: 257

Req: Also NC(CC(F)(F)F)P(=O)(O)O (racemic) [compound 8] , if possible.
Resp: 755
